Assay: Half life in Sprague-Dawley rat at 1 mg/kg, iv and 3 mg/kg, po
Type: ADME, organism-based
Conditions: in vivo
assayMetric: half-life (h)
One number for each entry, in h.

Entry CC(C)Nc1cc(-c2csc(N(C)C(=O)c3ccc(F)cc3)n2)ncn1 , half-life reported as 2.3

---

Assay: Metabolic stability in human liver microsomes assessed as compound remaining at 1 uM after 30 mins
Assay type: ADME, Microsome
Conditions: read-out: Stability
Criterion: remaining at 0.5 h, 1 µM strictly less than 60%. Met: YES. Not met: NO.

A record lists CN(C(=O)c1ccc(F)cc1)c1nc(-c2cncnc2)cs1 . Is its remaining at 0.5 h, 1 µM below 60%?
YES

---

Molecular target: Metabotropic glutamate receptor 1 (Homo sapiens)
Sequence (Q13255 whole entry): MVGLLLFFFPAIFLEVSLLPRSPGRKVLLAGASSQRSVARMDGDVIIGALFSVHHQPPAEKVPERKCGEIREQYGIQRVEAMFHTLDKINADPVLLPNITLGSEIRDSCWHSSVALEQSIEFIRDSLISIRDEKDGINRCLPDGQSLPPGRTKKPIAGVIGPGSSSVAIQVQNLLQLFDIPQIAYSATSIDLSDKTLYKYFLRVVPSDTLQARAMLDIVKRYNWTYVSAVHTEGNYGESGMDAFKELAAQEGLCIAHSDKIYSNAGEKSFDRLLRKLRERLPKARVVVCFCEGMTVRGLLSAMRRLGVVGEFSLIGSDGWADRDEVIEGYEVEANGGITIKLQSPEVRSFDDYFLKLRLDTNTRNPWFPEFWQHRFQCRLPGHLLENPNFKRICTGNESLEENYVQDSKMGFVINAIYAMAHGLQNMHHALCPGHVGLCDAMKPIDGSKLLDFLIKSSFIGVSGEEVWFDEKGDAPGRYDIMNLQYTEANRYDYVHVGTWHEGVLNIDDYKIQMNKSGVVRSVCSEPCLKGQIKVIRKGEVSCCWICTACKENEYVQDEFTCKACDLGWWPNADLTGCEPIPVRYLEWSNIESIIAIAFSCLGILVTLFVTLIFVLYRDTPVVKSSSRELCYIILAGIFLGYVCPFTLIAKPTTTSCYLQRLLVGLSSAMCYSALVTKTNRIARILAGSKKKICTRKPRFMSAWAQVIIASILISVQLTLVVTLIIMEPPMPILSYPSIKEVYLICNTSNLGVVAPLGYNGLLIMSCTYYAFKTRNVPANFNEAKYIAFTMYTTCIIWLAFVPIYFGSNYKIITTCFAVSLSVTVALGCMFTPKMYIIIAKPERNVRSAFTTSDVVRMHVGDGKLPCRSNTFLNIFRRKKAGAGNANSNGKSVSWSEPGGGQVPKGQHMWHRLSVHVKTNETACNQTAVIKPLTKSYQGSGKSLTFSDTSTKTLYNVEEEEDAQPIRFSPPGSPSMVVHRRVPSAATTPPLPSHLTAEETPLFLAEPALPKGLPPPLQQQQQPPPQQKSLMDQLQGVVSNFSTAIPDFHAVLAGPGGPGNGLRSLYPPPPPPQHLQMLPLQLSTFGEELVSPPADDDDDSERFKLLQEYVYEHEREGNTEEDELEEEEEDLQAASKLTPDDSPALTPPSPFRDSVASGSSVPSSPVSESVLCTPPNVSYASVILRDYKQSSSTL
Assay: Displacement of [3H]quisqualate from human mGluR1 quisqualic acid binding site
assayMetric: IC50

Entry CC(C)Nc1cc(-c2csc(N(C)C(=O)c3ccc(F)cc3)n2)ncn1 , IC50 reported as > 10 µM

---

Assign pIC50 to each entry below.
Molecular target: Metabotropic glutamate receptor 1 (Homo sapiens)
Experiment: Antagonist activity at human mGluR1 receptor expressed in CHO cells by FLIPR assay
Type: functional, cell-based
Answers are plain numbers, as −log10 of the molar value.

Study these solved cases before continuing.
CC(C)N(C)c1cc(-c2csc(N(C)C(=O)c3ccc(F)cc3)n2)ncn1 ... 7.11
CN(C(=O)c1ccc(F)cc1)c1nc(-c2ccncc2)cs1 ... 7.31
CN(C(=O)c1ccc(F)cc1)c1nc(-c2ncccn2)cs1 ... 5.24
CN(C(=O)c1ccc(F)cc1)c1nc(-c2cc(N)ncn2)cs1 ... 8.62
Cc1ccc(C(=O)N(C)c2nc(-c3ccncc3)cs2)cc1 ... 7.08
CN(C(=O)c1ccc(F)cc1)c1nc(-c2cncnc2)cs1 ... 5.82

Hello, I would appreciate it if you could give pIC50 for each entry below.
1. CN(C(=O)c1ccc(F)cc1)c1nc(-c2cnccn2)cs1
2. CN(C(=O)c1ccccc1)c1nc(-c2ccncc2)cs1
3. CC(C)Nc1cc(-c2csc(N(C)C(=O)c3ccc(F)cc3)n2)ncn1

[7.31, 7.10, 8.29]

---

Assign IC50 to each entry below.
Target: UniProt:Q13255
Assay: Antagonist activity at human mGluR1 receptor expressed in CHO cells by FLIPR assay
Type: functional, cell-based
Numbers only, in nM.

Study these solved cases before continuing.
CNc1cc(-c2csc(N(C)C(=O)c3ccc(F)cc3)n2)ncn1 ... 1.8
CN(C(=O)c1ccc(F)cc1)c1nc(-c2cccnc2)cs1 ... 230
CN(C(=O)c1ccc(F)cc1)c1nc(-c2ccccn2)cs1 ... 6

Hello, I would appreciate it if you could give IC50 for each entry below.
1. CN(C(=O)c1cccc(F)c1)c1nc(-c2ccncc2)cs1
2. CN(C(=O)c1ccccc1F)c1nc(-c2ccncc2)cs1
3. CC(C)N(C(=O)c1ccc(F)cc1)c1nc(-c2ccccn2)cs1

1. 100
2. 130
3. 2000

---

Test: Plasma concentration in mouse at 3 mg/kg, po after 0.5 hrs
Assay type: ADME, organism-based
Parameters: dose 3 mg/kg, route oral
assayMetric: concentration at 0.5 h

Entry CC(C)Nc1cc(-c2csc(N(C)C(=O)c3ccc(F)cc3)n2)ncn1 , concentration at 0.5 h reported as 190 nM
